# Assayed system: Tb-labeled inactive PDGFRβ (Homo sapiens (Human))
# Sequence (P09619 whole entry, looked up): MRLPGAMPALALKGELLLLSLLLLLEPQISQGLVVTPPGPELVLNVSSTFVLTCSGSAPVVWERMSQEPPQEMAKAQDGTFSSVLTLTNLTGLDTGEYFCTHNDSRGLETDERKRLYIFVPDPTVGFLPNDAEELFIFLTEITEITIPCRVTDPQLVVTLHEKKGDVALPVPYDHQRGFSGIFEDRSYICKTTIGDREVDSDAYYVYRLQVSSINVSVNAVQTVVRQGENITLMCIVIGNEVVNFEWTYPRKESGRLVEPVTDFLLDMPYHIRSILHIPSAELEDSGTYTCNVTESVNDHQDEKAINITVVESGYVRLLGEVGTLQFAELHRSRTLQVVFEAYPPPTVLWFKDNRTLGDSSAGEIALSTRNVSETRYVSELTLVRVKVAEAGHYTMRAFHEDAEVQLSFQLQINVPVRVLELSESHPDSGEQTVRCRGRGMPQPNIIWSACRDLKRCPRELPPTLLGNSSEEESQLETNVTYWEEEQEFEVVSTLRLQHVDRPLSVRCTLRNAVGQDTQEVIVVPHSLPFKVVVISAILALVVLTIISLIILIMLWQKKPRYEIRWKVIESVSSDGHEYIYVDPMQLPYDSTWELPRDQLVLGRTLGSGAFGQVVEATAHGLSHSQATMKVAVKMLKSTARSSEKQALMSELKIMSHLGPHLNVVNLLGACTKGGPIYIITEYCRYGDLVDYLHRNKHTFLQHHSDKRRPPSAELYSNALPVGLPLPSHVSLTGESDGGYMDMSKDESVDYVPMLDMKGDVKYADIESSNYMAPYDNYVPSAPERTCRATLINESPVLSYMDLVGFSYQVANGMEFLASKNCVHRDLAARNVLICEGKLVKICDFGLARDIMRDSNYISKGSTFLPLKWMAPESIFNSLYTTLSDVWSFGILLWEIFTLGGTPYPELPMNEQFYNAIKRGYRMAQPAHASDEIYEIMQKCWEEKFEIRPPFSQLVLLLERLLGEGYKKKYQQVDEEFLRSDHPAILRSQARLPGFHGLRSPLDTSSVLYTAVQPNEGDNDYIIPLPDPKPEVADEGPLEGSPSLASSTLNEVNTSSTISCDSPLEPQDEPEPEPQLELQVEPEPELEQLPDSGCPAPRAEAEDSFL
# Assay: biochemical
# Format: binding
# Condition: read-out: PDGFR Lantha IC50
Cut-off 4 nM on IC50: below means true, at or above means false.

>  <Compound>
Cc1ncc(C(=O)NCCN2CCCC[C@H]2C)cc1Nc1nn(C)c2nc(Nc3cncnc3)ncc12

>  <Class label>
false

$$$$
>  <Compound>
Cc1ncc(C(=O)NCCN2CCOCC23CC3)cc1Nc1nn(C)c2nc(Nc3cncnc3)ncc12

>  <Class label>
false

$$$$
>  <Compound>
Cc1ncc(NC(=O)CN2CCCC2)cc1Nc1nn(C)c2nc(Nc3cnn(C)c3)ncc12

>  <Class label>
true

$$$$
>  <Compound>
Cc1ncc(C(=O)NCCN2CCCC2(C)C)cc1Nc1nn(C)c2nc(Nc3cccc(C(C)(C)C(=O)O)c3)ncc12

>  <Class label>
false

$$$$
>  <Compound>
Cc1ncc(C(=O)NCCC2CCCCC2)cc1Nc1nn(C)c2nc(NCCC3CCCCC3)ncc12

>  <Class label>
false

$$$$
>  <Compound>
COCCn1cc(Nc2ncc3c(Nc4cc(NC(=O)CN5CCC56CCC6)cnc4C)nn(C)c3n2)cn1

>  <Class label>
true

$$$$
>  <Compound>
Cc1ncc(C(=O)NCCN2C[C@H](C)O[C@@H](C)C2)cc1Nc1nn(C)c2nc(Nc3cnn(C)c3)ncc12 (relative stereo)

>  <Class label>
false

$$$$

###

Reported IC50 values for the following molecules.
# Assayed system: His6-TEV-PDGFRβ (557-1016) (Homo sapiens (Human), UniProt P09619)
# Sequence (P09619 whole entry, looked up): as above
# Assay: PDGFRβ HTRF Assay
# Type: biochemical
# Condition: 800 μM ATP, 0.5 μM TK-substrate biotin peptide, 30 min pre-incubation, 3 hours reaction; read-out: PDGFR HTRF IC50

>  <Smiles code>
Cc1ncc(C(=O)NCCN2CCCCC23CC3)cc1Nc1nn(C)c2nc(Nc3cncnc3)ncc12

>  <IC50>
540 pM

$$$$
>  <Smiles code>
Cc1ncc(C(=O)NCCN2CCCC2(C)C)cc1Nc1nn(C)c2nc(Nc3cccc(C(C)(C)C(=O)O)c3)ncc12

>  <IC50>
2580 pM

$$$$
>  <Smiles code>
Cc1ccc(C(=O)NCCN2CCCC2(C)C)cc1Nc1nn(C)c2nc(Nc3cnn(C)c3)ncc12

>  <IC50>
280 pM

$$$$
>  <Smiles code>
Cc1cc(C(=O)NCCN2CCCOCC2)sc1Nc1nn(C)c2nc(Nc3cnn(C)c3)ncc12

>  <IC50>
830 pM

$$$$
>  <Smiles code>
Cc1ncc(C(=O)NCCN2CCC(C)(C)C2)cc1Nc1nn(C)c2nc(Nc3cnn(C)c3)ncc12

>  <IC50>
330 pM

$$$$
>  <Smiles code>
Cc1ncc(C(=O)NCCN2CCCC23CCC3)cc1Nc1nn(C)c2nc(Nc3cncnc3)ncc12

>  <IC50>
460 pM

$$$$
>  <Smiles code>
Cc1ncc(C(=O)NCCN(CCCO)C2CCCC2)cc1Nc1nn(C)c2nc(Nc3cnn(C)c3)ncc12

>  <IC50>
430 pM

$$$$
>  <Smiles code>
Cc1ncc(NC(=O)CN(CCF)C2CCCC2)cc1Nc1nn(C)c2nc(Nc3cnn(C)c3)ncc12

>  <IC50>
440 pM

$$$$
>  <Smiles code>
Cc1nn(C)cc1Nc1ncc2c(Nc3cc(C(=O)NCCN4CCC(C)(C)C4)cnc3C)nn(C)c2n1

>  <IC50>
1500 pM

$$$$
>  <Smiles code>
Cc1ncc(C(=O)NCCN2C3CCCC2CCC3)cc1Nc1nn(C)c2nc(Nc3cnn(C)c3)ncc12

>  <IC50>
330 pM

$$$$
>  <Smiles code>
Cc1ncc(C(=O)NCCC2CCCCC2)cc1Nc1nn(C)c2nc(Nc3ccc(CC#N)nc3)ncc12

>  <IC50>
590 pM

$$$$
>  <Smiles code>
Cc1ncc(NC(=O)CN2CCC[C@@H]2C)cc1Nc1nn(C)c2nc(Nc3cnn(C4COC4)c3)ncc12

>  <IC50>
350 pM

$$$$
>  <Smiles code>
Cn1cc(Nc2ncc3c(Nc4cc(C(=O)NCCN5CCC(F)(F)CC5)ccc4F)nn(C)c3n2)cn1

>  <IC50>
200 pM

$$$$
>  <Smiles code>
CC[C@@H]1CN(CCNC(=O)c2cnc(C)c(Nc3nn(C)c4nc(Nc5ccnc(N6CCC(CCO)CC6)c5)ncc34)c2)CCO1

>  <IC50>
940 pM

$$$$
>  <Smiles code>
Cc1ncc(C(=O)NCCN2CCCC2(C)C)cc1Nc1nn(C)c2nc(NC3CCS(=O)(=O)CC3)ncc12

>  <IC50>
51000 pM

$$$$
>  <Smiles code>
Cc1ncc(C(=O)NCCN2CCCC2(C)C)cc1Nc1nn(C)c2nc(Nc3ccncc3)ncc12

>  <IC50>
500 pM

$$$$
>  <Smiles code>
COC1CCN(CCNC(=O)c2cc(C)c(Nc3nn(C)c4nc(Nc5cnn(C)c5)ncc34)s2)CC1

>  <IC50>
1170 pM

$$$$
>  <Smiles code>
CO[C@@H]1CCN(CC(=O)Nc2cnc(C)c(Nc3nn(C)c4nc(Nc5cnn(C)c5)ncc34)c2)C1

>  <IC50>
410 pM

$$$$
>  <Smiles code>
CC(=O)Nc1cncc(Nc2ncc3c(Nc4cc(C(=O)NCCN5CCCC5(C)C)cnc4C)nn(C)c3n2)c1

>  <IC50>
660 pM

$$$$
>  <Smiles code>
Cc1ncc(C(=O)NCCC2CCCCC2)cc1Nc1nn(C)c2nc(Nc3ccnc(N4CCN(CCO)CC4)c3)ncc12

>  <IC50>
770 pM

$$$$
>  <Smiles code>
Cn1nc(Nc2cc(C(=O)NCCN3CCCC3(C)C)ccc2F)c2cnc(Nc3ccncn3)nc21

>  <IC50>
4710 pM

$$$$
>  <Smiles code>
Cc1ccc(C(=O)NCCN2CCC(F)(F)CC2)cc1Nc1nn(C)c2nc(Nc3cnn(C)c3)ncc12

>  <IC50>
290 pM

$$$$
>  <Smiles code>
Cc1cc(C(=O)NCCN2CCCC2(C)C)sc1Nc1nn(C)c2nc(Nc3cncnc3)ncc12

>  <IC50>
1070 pM

$$$$
>  <Smiles code>
Cc1ncc(C(=O)NCCN2CCCC2(C)C)cc1Nc1nn(C)c2nc(Nc3cncc(C(N)=O)c3)ncc12

>  <IC50>
800 pM

$$$$
>  <Smiles code>
CO[C@H]1CCN(CC(=O)Nc2cnc(C)c(Nc3nn(C)c4nc(Nc5cnn(C)c5)ncc34)c2)C1

>  <IC50>
520 pM

$$$$
>  <Smiles code>
Cc1ncc(C(=O)NCCN2CCC3(CC3)C2)cc1Nc1nn(C)c2nc(Nc3cncnc3)ncc12

>  <IC50>
360 pM

$$$$
>  <Smiles code>
Cc1ncc(C(=O)NCCN2CCCCC23CC3)cc1Nc1nn(C)c2nc(Nc3cnn(C)c3)ncc12

>  <IC50>
300 pM

$$$$
>  <Smiles code>
COCCn1cc(Nc2ncc3c(Nc4cc(NC(=O)CN5CCC(C)(C)C5)cnc4C)nn(C)c3n2)cn1

>  <IC50>
270 pM

$$$$
>  <Smiles code>
Cc1ncc(NC(=O)CN2CC(C)(C)C2)cc1Nc1nn(C)c2nc(Nc3cnn(C)c3)ncc12

>  <IC50>
240 pM

$$$$
>  <Smiles code>
Cc1ncc(C(=O)NCCN(C)C2CCOCC2)cc1Nc1nn(C)c2nc(Nc3cncnc3)ncc12

>  <IC50>
630 pM

$$$$

###

# Assayed system: Tb-labeled inactive PDGFRβ (Homo sapiens (Human))
# Assay: biochemical
# Type: binding
# Condition: read-out: PDGFR Lantha IC50
Property name: log10 IC50 (log10 of the value in nM)

>  <Compound>
Cc1ncc(C(=O)NCCN2CCCC2(C)C)cc1Nc1nn(C)c2nc(Nc3ccc(N4CCOCC4)nc3)ncc12

>  <log10 IC50>
0.58

$$$$
>  <Compound>
Cc1ncc(C(=O)NCCN2CCC(F)(F)CC2)cc1Nc1nn(C)c2nc(Nc3cncnc3)ncc12

>  <log10 IC50>
0.52

$$$$
>  <Compound>
Cc1ncc(C(=O)NCCN2CCCC2(C)C)cc1Nc1nn(C)c2nc(Nc3cccc(C4(C(=O)O)CC4)c3)ncc12

>  <log10 IC50>
1.18

$$$$
>  <Compound>
CC(=O)Nc1cccc(Nc2ncc3c(Nc4cc(C(=O)NCCN5CCCC5(C)C)cnc4C)nn(C)c3n2)c1

>  <log10 IC50>
1.08

$$$$
>  <Compound>
Cc1ncc(NC(=O)C2(C(=O)N3CCN(C)CC3)CC2)cc1Nc1nn(C)c2nc(Nc3cnn(C)c3)ncc12

>  <log10 IC50>
1.77

$$$$
>  <Compound>
Cc1ncc(C(=O)NCCN2CC(C)CC(C)C2)cc1Nc1nn(C)c2nc(Nc3cnn(C)c3)ncc12 (stereo not shown)

>  <log10 IC50>
0.36

$$$$
>  <Compound>
COc1ncccc1Nc1ncc2c(Nc3cc(NC(=O)CN4CCC[C@@H]4C)cnc3C)nn(C)c2n1

>  <log10 IC50>
1.29

$$$$
>  <Compound>
Cc1ncc(NC(=O)CN2CCC[C@@H]2C)cc1Nc1nn(C)c2nc(Nc3ccnn3C)ncc12

>  <log10 IC50>
1.07

$$$$
>  <Compound>
CO[C@@H]1CCN(CC(=O)Nc2cnc(C)c(Nc3nn(C)c4nc(Nc5cnn(C)c5)ncc34)c2)C1

>  <log10 IC50>
0.45

$$$$
>  <Compound>
Cc1ncc(C(=O)NCCN2CCCC2(C)C)cc1Nc1nn(C)c2nc(Nc3ccncc3)ncc12

>  <log10 IC50>
0.58

$$$$
>  <Compound>
Cc1ncc(C(=O)NCCN2C[C@@H](C)O[C@@H](C)C2)cc1Nc1nn(C)c2nc(Nc3cnn(C)c3)ncc12

>  <log10 IC50>
0.62

$$$$
>  <Compound>
Cc1ncc(C(=O)NCCN2CCCC2(C)C)cc1Nc1nn(C)c2nc(Nc3ccc(=O)[nH]n3)ncc12

>  <log10 IC50>
1.95

$$$$
>  <Compound>
Cc1ncc(C(=O)NCCN2CCC3(CC3)C2)cc1Nc1nn(C)c2nc(Nc3cnn(C)c3)ncc12

>  <log10 IC50>
0.26

$$$$
>  <Compound>
Cc1cc(C(=O)NCCN2CC3COCC3C2)sc1Nc1nn(C)c2nc(Nc3cnn(C)c3)ncc12 (stereo not shown)

>  <log10 IC50>
1.01

$$$$
>  <Compound>
Cc1ncc(C(=O)NCCC2CCCCC2)cc1Nc1nn(C)c2nc(Nc3ccc(CC(=O)O)cc3)ncc12

>  <log10 IC50>
0.38

$$$$
>  <Compound>
Cc1nn(C)cc1Nc1ncc2c(Nc3cc(C(=O)NCCN4CCCC4(C)C)cnc3C)nn(C)c2n1

>  <log10 IC50>
1.12

$$$$
>  <Compound>
Cc1ncc(C(=O)NCCN2CC3CCC2CC3)cc1Nc1nn(C)c2nc(Nc3cnn(C)c3)ncc12

>  <log10 IC50>
0.23

$$$$
>  <Compound>
Cc1ncc(C(=O)NCCN2CCCC2(C)C)cc1Nc1nn(C)c2nc(Nc3cnn(C)c3C)ncc12

>  <log10 IC50>
1.31

$$$$
>  <Compound>
Cc1ccc(C(=O)NCCN2CCC(F)(F)CC2)cc1Nc1nn(C)c2nc(Nc3cnn(C)c3)ncc12

>  <log10 IC50>
0.26

$$$$
>  <Compound>
Cc1ccc(C(=O)NCCN2CCC3(CC3)C2)cc1Nc1nn(C)c2nc(Nc3cnn(C)c3)ncc12

>  <log10 IC50>
0.28

$$$$
>  <Compound>
Cc1ncc(C(=O)NCCN2CCCC2(C)C)cc1Nc1nn(C)c2nc(Nc3ccnc(N4CCC(CCO)CC4)c3)ncc12

>  <log10 IC50>
0.71

$$$$
>  <Compound>
CC[C@@H]1CN(CCNC(=O)c2cnc(C)c(Nc3nn(C)c4nc(Nc5cnn(C)c5)ncc34)c2)CCO1

>  <log10 IC50>
0.48

$$$$
>  <Compound>
Cn1cc(Nc2ncc3c(Nc4cc(C(=O)NCCN5CCCC5(C)C)ccc4F)nn(C)c3n2)cn1

>  <log10 IC50>
0.11

$$$$
>  <Compound>
Cc1ncc(C(=O)NCCN2CCCC[C@@H]2C)cc1Nc1nn(C)c2nc(Nc3cncnc3)ncc12

>  <log10 IC50>
0.72

$$$$
>  <Compound>
Cc1ncc(NC(=O)CN2CC(C)(C)C2)cc1Nc1nn(C)c2nc(Nc3cnn(C)c3)ncc12

>  <log10 IC50>
0.28

$$$$
